# Test system: HIV
# Measurement description: microbe, parasite or virus in culture
# Format: cell-based
# Run conditions: Human immunodeficiency virus 1, MT4; HIV-infected MT-4 cells, MTT method, 4 or 5 days at 37° C.; read-out: ED50 (the source's name)

Molecule | Rel | EC50 (µg/mL)
COC(=O)c1ccoc1Cn1c(Oc2cc(C)cc(C)c2)c(C(C)C)c(=O)[nH]c1=O | = | 0.074
CCc1c(C(=O)c2cc(C)cc(C)c2)n(Cc2cccc(OC)c2)c(=O)[nH]c1=O | = | 0.003
CCc1c(Oc2cc(C)cc(C)c2)n(Cc2ccccn2)c(=O)[nH]c1=O | = | 0.081
CCc1c(C(=O)c2cc(C)cc(C)c2)n(Cc2cc(F)cc(F)c2)c(=O)[nH]c1=O | = | 0.003
CCc1c(Sc2cc(C)cc(C)c2)n(Cc2cccc(OC)c2)c(=O)[nH]c1=O | = | 0.003
CCc1c(C(=O)c2cc(C)cc(C)c2)n(Cc2cc(C(F)(F)F)cc(C(F)(F)F)c2)c(=O)[nH]c1=O | > | 100
CCc1c(Oc2cc(C)cc(C)c2)n(Cc2cccc(Br)n2)c(=O)[nH]c1=O | = | 0.194
Cc1cc(C)cc(Sc2c(C(C)C)c(=O)[nH]c(=O)n2Cc2ccccc2)c1 | = | 0.012
